target: human Keap1 Kelch (Homo sapiens); construct: human Keap1 Kelch domain (residue 321-609, UniProt Q14145); test: Surface plasmon resonance (SPR), immobilized Keap1 Kelch domain; conditions: 25 °C, Rmax constrained to 15 RU (theoretical max)
Sequence (Q14145 321-609): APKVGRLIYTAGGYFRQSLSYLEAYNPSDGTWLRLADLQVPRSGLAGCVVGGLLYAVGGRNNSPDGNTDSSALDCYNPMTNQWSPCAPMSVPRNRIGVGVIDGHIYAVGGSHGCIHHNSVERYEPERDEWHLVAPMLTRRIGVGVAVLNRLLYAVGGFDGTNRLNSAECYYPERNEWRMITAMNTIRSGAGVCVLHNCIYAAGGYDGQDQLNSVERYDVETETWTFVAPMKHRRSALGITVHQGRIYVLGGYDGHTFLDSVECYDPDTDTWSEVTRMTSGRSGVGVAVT
reported metric: pKd
Hey, just a heads up that pKd is the negative log base 10 of the concentration in molar.

Exercise: Fill blank: measured pKd of the compound O=C(COc1ccccc1)NC1CCCCC1 [XCF #0252, N-Cyclohexyl-2-phenoxyacetamide] is ____.
Key: 3.22

---

molecular target: human Keap1 Kelch domain (Homo sapiens); construct: human Keap1 Kelch domain (residue 321-609, UniProt Q14145); made in house; host or cells: Escherichia coli BL21 (DE3) pLysS, pRSET A vector; assay: Fluorescence polarization (FP) competition assay, Cy5-Nrf2 peptide probe; assay type: binding; conditions: heterologous competition FP; Keap1 Kelch 14 nM, Cy5-Nrf2 probe 3 nM, 4% DMSO; mean ± SEM
I'd appreciate it if you marked entries 1 when Ki is lower than 0.04 µM and 0 when it is not.

molecule	category label
Cc1cc2c(cc1C(CC(=O)O)c1ccc3ccc(OCC(=O)NC4CCCCCC4)cc3c1)OCCO2 (stereo not drawn)	1
O=C(O)CC(c1cccc(Cl)c1)c1ccc2ccc(OCC(=O)NC3CCCCC3)cc2c1 (stereo not drawn)	0
O=C(O)CC(c1ccc2c(c1)OCO2)c1ccc2ccc(OCC(=O)NC3CCCCCC3)cc2c1 (stereo not drawn)	1
Cc1cc2c(cc1C(CC(=O)O)c1ccc3ccc(OCC(=O)NC4C=CCCC4)cc3c1)OCO2 (stereo not drawn)	1
COc1ccc(C(CC(=O)O)c2ccc3ccc(OCC(=O)NC4CCCCC4)cc3c2)cc1 (stereo not drawn)	0

Exercise: Lab note: confirm whether the reported Ki for this molecule is below 0.04 µM, equality not counting. molecule: CCCC1CCCCN1C(=O)COc1ccc2ccc(C(CC(=O)O)c3ccc4c(c3)OCO4)cc2c1 (stereo not drawn)
Key: 0

Exercise: API: query returns whether the molecule falls strictly under 0.04 µM in Ki. Query: Cc1c(Cl)cccc1C(CC(=O)O)c1ccc2ccc(OCC(=O)NC3CCCCCC3)cc2c1 (stereo not drawn)
Key: 0

Exercise: Given the entry Cc1c(Cl)cccc1C(CC(=O)O)c1ccc2ccc(OCC(=O)NC3CCCCC3)cc2c1 (stereo not drawn) , would its reported Ki be below 0.04 µM?
Key: 0

Exercise: Determine whether this molecule shows Ki lower than 0.04 µM (ties excluded): O=C(O)CC(c1ccc2c(c1)CCO2)c1ccc2ccc(OCC(=O)NC3CCCCCC3)cc2c1 (stereo not drawn)
Key: 1

---

biological target: human Keap1 Kelch domain (Homo sapiens, UniProt Q14145); construct: human Keap1 Kelch domain (residue 321-609, UniProt Q14145); made in house; host or cells: Escherichia coli BL21 (DE3) pLysS, pRSET A vector; assay: Fluorescence polarization (FP) competition assay, Cy5-Nrf2 peptide probe; type: binding; settings: heterologous competition FP; Keap1 Kelch 14 nM, Cy5-Nrf2 probe 3 nM, 4% DMSO; mean ± SEM
Sequence (Q14145 321-609): as above
Response field label: string, one of t (Ki strictly below 0.1 µM) or f.

Some solved cases for reference:
compound	category label
COc1cc(C(CC(=O)O)c2ccc3ccc(OCC(=O)NC4CCCCCC4)cc3c2)cc2nnn(C)c12 (centres unmarked)	t
COc1ccc(C(CC(=O)O)c2ccc3ccc(OCC(=O)NC4C=CCCC4)cc3c2)c(C)c1 (centres unmarked)	t
CC1(C)Oc2ccc(C(CC(=O)O)c3ccc4ccc(OCC(=O)NC5CCCCC5)cc4c3)cc2O1 (centres unmarked)	f
O=C(O)CC(c1ccccc1)c1ccc2ccc(OCC(=O)NC3CCCCCC3)cc2c1 (centres unmarked)	f

Exercise: Confirm or reject: Ki of O=C(O)CC(c1ccc2c(c1)OCO2)c1ccc2ccc(OCC(=O)NC34CC5CC(CC(C5)C3)C4)cc2c1 (centres unmarked) lies strictly below 0.1 µM
Key: f

Exercise: Determine whether this compound shows Ki lower than 0.1 µM (ties excluded): O=C(O)CC(c1ccc2c(c1)OC(F)(F)O2)c1ccc2ccc(OCC(=O)NC3CCCCC3)cc2c1 (centres unmarked)
Key: t

Exercise: Bench note: check whether O=C(O)CC(c1ccc2c(c1)OCO2)c1ccc2ccc(OCC(=O)NC3CCCCC3)cc2c1 (centres unmarked) shows Ki below 0.1 µM
Key: t

Exercise: Answer whether the compound O=C(O)CC(c1ccc2c(c1)OCO2)c1ccc2ccc(OCC(=O)NC3CCCC3)cc2c1 (centres unmarked) has Ki strictly less than 0.1 µM
Key: t

Measured values drawn from patent US20260193170A1 for this set.
